B1: Pre-mRNA-processing factor 40 homolog B, residues 274 to 332; numbered along this chain, Q6NWY9 (parent)
chain: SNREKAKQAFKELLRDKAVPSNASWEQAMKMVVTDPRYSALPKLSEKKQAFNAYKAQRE

Variants of: B1
assay.procedure: abundance fitness (aPCA) (normalised: wild type 0, dead -1); higher = more abundant; growth selection in yeast, the domain comes from the species named
condition.label: Homo sapiens
Classify as follows. Reported abundance fitness greater than or equal to -0.1: rule met. Reported abundance fitness below: rule not met.

Worked cases, answers included:
   variant_label   group_label
0           L44E      rule met
1           D16N  rule not met
2           A23M  rule not met

Query: // inclusive: abundance fitness at least -0.1? input: "E46M"
Result: rule not met

Query: Is abundance fitness at least -0.1? Consider "M31P"
Result: rule not met

Query: Could you please find out whether "K17V" has abundance fitness that meets -0.1 or exceeds it?
Result: rule not met

Query: Given "K30D" , state whether its abundance fitness is at least -0.1.
Result: rule not met
